experimentalTarget: Serine/threonine-protein kinase Chk1 (Homo sapiens)
experimentNotes: Inhibition of CHK1 at 30 uM by microfluidic mobility shift assay
Recorded measurements of inhibition, one per entry
The answer is to be given in %; state only the numeric part.

Answered cases to consult:
Form field: inhibition recorded for Cc1cc2nc(-c3ccccc3)nc(N)c2c(=O)[nH]1 with Serine/threonine-protein kinase Chk1 (Homo sapiens) (enter value)
3

Form field: inhibition recorded for Cn1nc(N)c2c(=O)[nH]c(-c3ccccc3)cc21 with Serine/threonine-protein kinase Chk1 (Homo sapiens) (enter value)
25

Form field: inhibition recorded for Nc1n[nH]c2cc(-c3cccnc3)[nH]c(=O)c12 with Serine/threonine-protein kinase Chk1 (Homo sapiens) (enter value)
9

Continuing:
Form field: inhibition recorded for CC(=O)Nc1nn(C)c2cc(-c3ccc(N4CCN(C)CC4)cc3)[nH]c(=O)c12 with Serine/threonine-protein kinase Chk1 (Homo sapiens) (enter value)
16

Form field: inhibition recorded for Cn1nc2c3c(nc(-c4ccccc4)cc31)NCC(=O)N2 with Serine/threonine-protein kinase Chk1 (Homo sapiens) (enter value)
6

Form field: inhibition recorded for Cc1cc2c(c(N)nn2C)c(N2CCOCC2)n1 with Serine/threonine-protein kinase Chk1 (Homo sapiens) (enter value)
-5

* * *

experimentalTarget: Mitogen-activated protein kinase 14 (Homo sapiens, UniProt Q16539)
Sequence (Q16539 whole entry): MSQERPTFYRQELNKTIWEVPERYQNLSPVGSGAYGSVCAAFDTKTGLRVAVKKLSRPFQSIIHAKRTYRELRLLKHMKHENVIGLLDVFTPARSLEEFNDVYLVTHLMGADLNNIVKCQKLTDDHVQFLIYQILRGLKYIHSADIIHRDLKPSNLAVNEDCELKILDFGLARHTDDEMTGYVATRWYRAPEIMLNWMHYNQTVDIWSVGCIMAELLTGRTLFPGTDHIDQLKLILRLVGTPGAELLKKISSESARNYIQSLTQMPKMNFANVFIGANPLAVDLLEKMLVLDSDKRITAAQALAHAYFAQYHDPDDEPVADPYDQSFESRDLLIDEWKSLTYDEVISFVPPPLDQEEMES
experimentNotes: Inhibition of p38alpha at 30 uM by microfluidic mobility shift assay
Recorded measurements of inhibition, one per entry
The answer is to be given in %; state only the numeric part.

Form field: inhibition recorded for Nc1c2c(=O)[nH]c(-c3ccccc3)cc2nn1-c1ccccn1 with Mitogen-activated protein kinase 14 (Homo sapiens, UniProt Q16539) (enter value)
7

Form field: inhibition recorded for COc1cccc(-c2cc3[nH]nc(N)c3c(=O)[nH]2)c1 with Mitogen-activated protein kinase 14 (Homo sapiens, UniProt Q16539) (enter value)
10

* * *

experimentalTarget: MAP kinase-activated protein kinase 2 (Homo sapiens, UniProt P49137)
Sequence (P49137 whole entry, looked up): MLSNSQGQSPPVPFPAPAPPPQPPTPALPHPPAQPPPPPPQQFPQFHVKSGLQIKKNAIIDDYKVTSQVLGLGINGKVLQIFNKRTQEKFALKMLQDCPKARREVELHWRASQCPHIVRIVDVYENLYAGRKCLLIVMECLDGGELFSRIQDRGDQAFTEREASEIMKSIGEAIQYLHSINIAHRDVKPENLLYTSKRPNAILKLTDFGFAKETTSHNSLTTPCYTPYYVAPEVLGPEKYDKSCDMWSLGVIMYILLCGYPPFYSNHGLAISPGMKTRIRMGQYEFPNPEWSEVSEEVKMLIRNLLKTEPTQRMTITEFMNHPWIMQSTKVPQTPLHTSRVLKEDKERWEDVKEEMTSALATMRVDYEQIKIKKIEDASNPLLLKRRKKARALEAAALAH
experimentNotes: Inhibition of MAPKAPK2 at 30 uM by microfluidic mobility shift assay
Recorded measurements of inhibition, one per entry
Don't forget the unit after the number, please.

Quick check: inhibition of Nc1n[nH]c2cc(-c3ccc(N4CCOCC4)cc3)[nH]c(=O)c12 ?
55%

Quick check: inhibition of COc1ccc(-c2cc3nn(-c4ccccc4)c(N)c3c(=O)[nH]2)cc1 ?
7%

Quick check: inhibition of COc1cccc(-c2cc3[nH]nc(N)c3c(=O)[nH]2)c1 ?
56%

Quick check: inhibition of Cn1nc(N)c2c(=O)[nH]c(-c3ccccc3)cc21 ?
37%

Quick check: inhibition of Cc1cc2c(c(N)nn2C)c(=O)[nH]1 ?
29%

Quick check: inhibition of Cn1nc(N)c2cnc(-c3ccccc3)cc21 ?
7%

Continuing:
Quick check: inhibition of Nc1c2c(=O)[nH]c(-c3ccccc3)cc2nn1-c1ccccc1 ?
2%

Quick check: inhibition of Cn1nc2c3c(nc(-c4ccccc4)cc31)NCC(=O)N2 ?
8%

Quick check: inhibition of Cc1cc2c(c(NS(C)(=O)=O)nn2C)c(=O)[nH]1 ?
1%

Quick check: inhibition of COc1ccc(-c2c(C)[nH]c(=O)c3c(N)nn(C)c23)cc1 ?
24%

Quick check: inhibition of COc1ccc(-c2cc3c(c(N)nn3C)c(=O)[nH]2)cc1 ?
51%

* * *

experimentalTarget: Tyrosine-protein kinase Lck (Homo sapiens, UniProt P06239)
Sequence (P06239 2-509 limits assumed): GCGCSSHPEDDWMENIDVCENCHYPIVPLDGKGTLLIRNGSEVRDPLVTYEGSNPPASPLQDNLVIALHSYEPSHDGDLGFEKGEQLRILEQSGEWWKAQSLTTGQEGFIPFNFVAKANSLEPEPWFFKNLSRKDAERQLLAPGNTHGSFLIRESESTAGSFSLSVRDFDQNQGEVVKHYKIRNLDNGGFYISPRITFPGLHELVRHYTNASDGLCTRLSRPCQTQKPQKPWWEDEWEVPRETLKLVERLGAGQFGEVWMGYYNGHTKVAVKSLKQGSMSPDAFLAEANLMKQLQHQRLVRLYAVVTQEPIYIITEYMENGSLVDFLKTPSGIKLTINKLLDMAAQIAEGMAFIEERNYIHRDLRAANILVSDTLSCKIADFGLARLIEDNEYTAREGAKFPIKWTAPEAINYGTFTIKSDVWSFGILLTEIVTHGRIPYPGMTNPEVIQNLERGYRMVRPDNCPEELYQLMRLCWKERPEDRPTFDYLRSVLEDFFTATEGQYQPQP
experimentNotes: Inhibition of LCK at 30 uM by microfluidic mobility shift assay
Recorded measurements of inhibition, one per entry
The answer is to be given in %; state only the numeric part.

Form field: inhibition recorded for Cc1cc2[nH]nc(N)c2cn1 with Tyrosine-protein kinase Lck (Homo sapiens, UniProt P06239) (enter value)
6

Form field: inhibition recorded for Cc1cc2c(c(N)nn2C)c(=O)[nH]1 with Tyrosine-protein kinase Lck (Homo sapiens, UniProt P06239) (enter value)
-1

Form field: inhibition recorded for Cn1nc(N)c2cnc(-c3ccccc3)cc21 with Tyrosine-protein kinase Lck (Homo sapiens, UniProt P06239) (enter value)
11

Form field: inhibition recorded for Cc1cc2nc(-c3ccccc3)nc(N)c2c(=O)[nH]1 with Tyrosine-protein kinase Lck (Homo sapiens, UniProt P06239) (enter value)
45

Form field: inhibition recorded for Cc1cc2c(c(NC(=O)Nc3ccccc3)nn2C)c(=O)[nH]1 with Tyrosine-protein kinase Lck (Homo sapiens, UniProt P06239) (enter value)
12

Form field: inhibition recorded for COc1ccccc1-c1cc2nn(-c3ccccc3)c(N)c2c(=O)[nH]1 with Tyrosine-protein kinase Lck (Homo sapiens, UniProt P06239) (enter value)
72

Form field: inhibition recorded for Cc1cc2nc(N)nc(N)c2c(=O)[nH]1 with Tyrosine-protein kinase Lck (Homo sapiens, UniProt P06239) (enter value)
12

Form field: inhibition recorded for Nc1n[nH]c2cc(-c3ccncc3)[nH]c(=O)c12 with Tyrosine-protein kinase Lck (Homo sapiens, UniProt P06239) (enter value)
37

Form field: inhibition recorded for CN1CCN(c2ccc(-c3cc4c(c(N)nn4C)c(=O)[nH]3)cc2)CC1 with Tyrosine-protein kinase Lck (Homo sapiens, UniProt P06239) (enter value)
65

Form field: inhibition recorded for Nc1n[nH]c2cc(-c3ccc(N4CCOCC4)cc3)[nH]c(=O)c12 with Tyrosine-protein kinase Lck (Homo sapiens, UniProt P06239) (enter value)
44

Form field: inhibition recorded for COc1ccc(S(=O)(=O)Nc2nn(C)c3cc(C)[nH]c(=O)c23)c(OC)c1 with Tyrosine-protein kinase Lck (Homo sapiens, UniProt P06239) (enter value)
-1

Form field: inhibition recorded for Nc1n[nH]c2c3c([nH]c(=O)c12)CCCC3 with Tyrosine-protein kinase Lck (Homo sapiens, UniProt P06239) (enter value)
7

* * *

experimentalTarget: Serine/threonine-protein kinase Chk1 (Homo sapiens) (UniProt O14757)
Sequence (O14757 whole entry): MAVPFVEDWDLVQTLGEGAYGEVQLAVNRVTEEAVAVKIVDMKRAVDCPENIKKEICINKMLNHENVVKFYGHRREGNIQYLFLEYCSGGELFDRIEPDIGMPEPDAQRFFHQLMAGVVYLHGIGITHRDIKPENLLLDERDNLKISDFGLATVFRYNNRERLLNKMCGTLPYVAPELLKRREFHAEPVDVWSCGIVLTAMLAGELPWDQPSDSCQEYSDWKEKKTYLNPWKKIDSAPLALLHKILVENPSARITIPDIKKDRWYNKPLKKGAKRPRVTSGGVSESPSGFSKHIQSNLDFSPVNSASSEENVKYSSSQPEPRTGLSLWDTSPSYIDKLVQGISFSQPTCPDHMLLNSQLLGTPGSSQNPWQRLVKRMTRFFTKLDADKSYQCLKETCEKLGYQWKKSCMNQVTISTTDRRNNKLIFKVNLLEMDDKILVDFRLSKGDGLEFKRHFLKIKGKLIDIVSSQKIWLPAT
experimentNotes: Inhibition of CHK1 at 30 uM by microfluidic mobility shift assay
Label rule, in plain words: inhibition of 10% and up is Fulfilled, under 10% is Not fulfilled.

// below: answered compounds
Reported inhibition reaches at least 10% for Nc1n[nH]c2cc(-c3cccs3)[nH]c(=O)c12 ?
Fulfilled

Reported inhibition reaches at least 10% for Cc1cc2[nH]ncc2c(=O)[nH]1 ?
Not fulfilled

Reported inhibition reaches at least 10% for Cc1cc2c(c(NC(=O)Nc3ccccc3)nn2C)c(=O)[nH]1 ?
Not fulfilled

Please look at the following compound next.
Reported inhibition reaches at least 10% for CC(C)(C)c1cc2[nH]nc(N)c2c(=O)[nH]1 ?
Fulfilled

* * *

experimentalTarget: Mitogen-activated protein kinase 3 (Homo sapiens) (UniProt P27361)
Sequence (P27361 whole entry): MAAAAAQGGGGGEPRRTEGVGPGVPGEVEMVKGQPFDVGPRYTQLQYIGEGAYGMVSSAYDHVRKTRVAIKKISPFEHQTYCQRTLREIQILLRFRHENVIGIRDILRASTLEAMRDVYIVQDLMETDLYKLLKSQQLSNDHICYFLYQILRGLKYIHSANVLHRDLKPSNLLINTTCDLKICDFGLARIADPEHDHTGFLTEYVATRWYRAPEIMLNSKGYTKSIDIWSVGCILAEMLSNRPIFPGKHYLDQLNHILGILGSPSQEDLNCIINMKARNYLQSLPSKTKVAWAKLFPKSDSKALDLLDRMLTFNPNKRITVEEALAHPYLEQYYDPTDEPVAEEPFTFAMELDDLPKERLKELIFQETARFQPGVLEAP
experimentNotes: Inhibition of ERK1 at 30 uM by microfluidic mobility shift assay
Recorded measurements of inhibition, one per entry
The answer is to be given in %; state only the numeric part.

Form field: inhibition recorded for COCCNc1nc(C)cc2nn(-c3ccccc3)c(N)c12 with Mitogen-activated protein kinase 3 (Homo sapiens) (UniProt P27361) (enter value)
3

Continuing:
Form field: inhibition recorded for Cc1cc2[nH]ncc2c(=O)[nH]1 with Mitogen-activated protein kinase 3 (Homo sapiens) (UniProt P27361) (enter value)
4

Form field: inhibition recorded for Cc1cc2[nH]nc(N)c2c(N2CCCCC2)n1 with Mitogen-activated protein kinase 3 (Homo sapiens) (UniProt P27361) (enter value)
6

Form field: inhibition recorded for CC(C)(C)c1cc2[nH]nc(N)c2c(=O)[nH]1 with Mitogen-activated protein kinase 3 (Homo sapiens) (UniProt P27361) (enter value)
12

Form field: inhibition recorded for Nc1c2c(=O)[nH]c(-c3ccccn3)cc2nn1-c1ccccc1 with Mitogen-activated protein kinase 3 (Homo sapiens) (UniProt P27361) (enter value)
4

Form field: inhibition recorded for Cn1nc(N)c2c(=O)[nH]c(-c3ccccn3)cc21 with Mitogen-activated protein kinase 3 (Homo sapiens) (UniProt P27361) (enter value)
10

Form field: inhibition recorded for Cc1cc2[nH]nc(N)c2c(N2CCOCC2)n1 with Mitogen-activated protein kinase 3 (Homo sapiens) (UniProt P27361) (enter value)
15

* * *

experimentalTarget: Mitogen-activated protein kinase 14 (Homo sapiens, UniProt Q16539)
experimentNotes: Inhibition of p38alpha at 30 uM by microfluidic mobility shift assay
testReadout: inhibition (%)
The answer is to be given in %; state only the numeric part.

Quick check: inhibition of Nc1n[nH]c2cc(-c3ccccn3)[nH]c(=O)c12 ?
17

Continuing:
Quick check: inhibition of Cn1nc(N)c2c(=O)[nH]c(-c3ccccc3)cc21 ?
7

Quick check: inhibition of Cc1cc2nn(-c3ccccc3)c(N)c2c(N2CCCCC2)n1 ?
10

Quick check: inhibition of Nc1c2c(=O)[nH]c(-c3ccccn3)cc2nn1-c1ccccc1 ?
32

Quick check: inhibition of CN1CCN(c2ccc(-c3cc4[nH]nc(N)c4c(=O)[nH]3)cc2)CC1 ?
7

Quick check: inhibition of Nc1n[nH]c2cc(-c3cccs3)[nH]c(=O)c12 ?
6

Quick check: inhibition of COCCNc1nc(C)cc2c1c(N)nn2C ?
1

Quick check: inhibition of Cc1cc2[nH]nc(N)c2c(N2CCCCC2)n1 ?
1

Quick check: inhibition of Nc1n[nH]c2cc(-c3ccncc3)[nH]c(=O)c12 ?
1
